Each recorded value in this set is attributed to paper PMC5884906.

Examples of compounds with documented AUC(0-inf) follow.
Assay: pharmacokinetic study in plasma after i.v. and i.p. administration
Format: in vivo, mice
Conditions: CD-1, ip; i.p.; HBK-14 2.5 mg/kg, HBK-15 1.25 mg/kg; mouse plasma
readout.label: AUC(0-inf) (ng·h/mL)

* COc1ccccc1N1CCN(CCOCCOc2c(C)cccc2C)CC1.Cl [HBK-14] | 560
* COc1ccccc1N1CCN(CCOCCOc2c(C)cccc2Cl)CC1.Cl [HBK-15] | 261
